- assayProtocol: H69AR viability gain despite doxorubicin, primary screen, MRP-1 activator project, H69AR cells, CellTiter-Glo (AID 799);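 further: MRP-1 overexpressing cells given doxorubicin 25 µM after compound pretreatment; 18-22 h compound pretreatment then 72 h with doxorubicin before readout; 0% = doxorubicin-only wells and 100% = vehicle-treated cells without doxorubicin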
- conditionLabel: viability rescue, at 10 µM, stronger effect = higher value
In all, about 140,000 compounds went through this assay and about 840 (0.6%) were called active. The list comes from a sample in which actives are over-represented; it also holds close analogues and randomly drawn compounds.
Recorded viability increase, one value per entry.
Respond numerically; units are % and should not be typed.

Record excerpt, results attached:
CCC1CCCCN1C(=S)Nc1ccc(SC(F)F)cc1 (stereo not drawn)
1.82
CSCCC1NC2(C(=O)Nc3ccc(Cl)cc32)[C@@H]2C(=O)N(C3CCCC3)C(=O)[C@H]12 (stereo partly drawn)
-3.72

Param item = O=C(C1CC1)N1CCN=C1SCc1ccc(Cl)cc1 ; retrieve measured viability increase.
4.76

I would be grateful if you could share the reported viability increase for NC1=NC(=O)C(Cc2cccc(Cl)c2Cl)S1 (stereo not drawn) .
-0.15

# input compound: C/C(=N/NC(=O)CSc1ccccn1)c1ccc([N+](=O)[O-])cc1 ; wanted: its viability increase
5.38

For the compound CCCCOc1ccc(C(=O)N/C(=C/C=C/c2ccccc2)C(=O)N2CCOCC2)cc1 , what viability increase is on record?
-4.14

Suppose we examine the compound COCc1c(C(=O)N/N=C/C2CC=CCC2)nnn1-c1nonc1N (stereo not drawn) ; what viability increase value has been reported?
-1.34

Using the record for Cc1ccc(C(C[N+](=O)[O-])c2c(C)cc3ccccn23)cc1 (stereo not drawn) , report its viability increase.
-4.62

Reported viability increase for CCC(=O)Nc1ccc(C(=O)Nc2cccc(OC)c2)cc1 : what is it?
-2.62

====

- assayProtocol: H69AR viability gain despite doxorubicin, primary screen, MRP-1 activator project, H69AR cells, CellTiter-Glo (AID 799);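 further: MRP-1 overexpressing cells given doxorubicin 25 µM after compound pretreatment; 18-22 h compound pretreatment then 72 h with doxorubicin before readout; 0% = doxorubicin-only wells and 100% = vehicle-treated cells without doxorubicin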
- conditionLabel: viability rescue, at 10 µM
About 840 (0.6%) of roughly 140,000 compounds were called active.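 How the source made its calls: active means viability gain under doxorubicin at or above a set limit, the compound median plus 3 SD (cut at about 4.7% in these data); inactive means the rest.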 Only a selection was taken, and actives are over-represented in it overall.
Write down one outcome, taken from active, inactive

Cc1ccc(OCc2nnc(SC3CCc4ccccc4C3=O)n2C)cc1 (configuration not stated)
active

For this molecule, state the assay outcome: Cc1noc(C)c1C(=O)OCC(=O)/C=C1\N(C)c2ccccc2C1(C)C
inactive

Short answer needed: outcome of this test for Cc1cccc(C)c1-n1c(C)cc(/C=C2\C(=O)NN(c3ccccc3)C2=O)c1C ?
active

// param item: COc1ccc([N+](=O)[O-])cc1NC(=O)COC(=O)/C=C/c1ccco1 ; yields the recorded call
active

Name the outcome recorded for Cc1cc(/C=C2/NC(=O)NC2=O)c(C)n1-c1cccnc1 in the assay.
inactive

What classification did CCCC(=O)Nc1cccc(NC(=S)NC(=O)C(C)Oc2ccc(Cl)cc2Cl)c1 (configuration not stated) end up with in this test?
inactive

Please share the test call associated with Cc1c(C2=CCN(S(=O)(=O)c3ccc(Cl)cc3)CC2)c2ccccc2n1C .
inactive

====

- assayProtocol: H69AR viability gain despite doxorubicin, primary screen, MRP-1 activator project, H69AR cells, CellTiter-Glo (AID 799);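 further: MRP-1 overexpressing cells given doxorubicin 25 µM after compound pretreatment; 18-22 h compound pretreatment then 72 h with doxorubicin before readout; 0% = doxorubicin-only wells and 100% = vehicle-treated cells without doxorubicin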
- conditionLabel: viability rescue, at 10 µM
About 840 (0.6%) of roughly 140,000 compounds were called active.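 The calls were made as follows: active = viability gain under doxorubicin at or above a set limit, the compound median plus 3 SD (cut at about 4.7% in these data); inactive = the rest.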 The entries come from a sample that favours actives as a whole.
// allowed return values: T for active, F for inactive

# count of solved cases: 5
Cn1c(=O)c(Sc2ccc(Cl)cc2)c(O)c2ccccc21
F
COC(=O)CN1C(=S)N(c2ccccc2)C(=O)C1CC(=O)Nc1ccc(Cl)cc1 (centres undefined)
F
COc1nc(NCc2ccc(Cl)cc2)nc(OC)n1
T
C=CCNc1nc(C)nc(OC)n1
F
COc1ccc(CC(=O)Nc2ccc(C(=O)NC(C)(C)C)cc2)cc1
F

Dear colleague, could you share the recorded outcome for Cc1ccc(CSCC(N)C(=O)O)cc1 (centres undefined) when you have a moment?
F

Record lookup: outcome of this test for Cc1ccc(OCC(=O)OC(C)CN(C)Cc2ccccc2)cc1 (centres undefined) ?
F

Please let me know the test result on file for Cc1ccc(C(=O)NC(C)c2ccccc2)cc1Br (centres undefined) .
F

Test call for this compound, please: COc1ccc(NS(=O)(=O)c2ccc(NC(=S)NC(=O)/C=C/c3ccc(C)cc3)cc2)nn1
F

Which outcome did this test record for the compound O=C1CSC2=NCN(c3ccccc3)CN12 ?
T

Any idea what this test logged for O=S(=O)(NCCSc1ccccn1)c1ccc(Cl)cc1 ?
F

Returns: the outcome recorded for Cc1cccc(-n2ncc3c(N4CCc5ccccc54)ncnc32)c1 in this assay.
F

Dear colleague, could you share the recorded outcome for COc1ccc(N2C(=O)C(CC(=O)Nc3ccc(F)cc3)N(CCc3cccs3)C2=O)cc1 (centres undefined) when you have a moment?
T

Query: recorded result category for C/C(=N/NC(=S)Nc1ccccc1)c1ccc2c(c1)OCO2 in this test
T
